test: Cytotoxicity against Sprague-Dawley rat cortical neuron assessed as cell survival at 33.3 uM incubated for 48 hrs by CellTiter Glo-based luminescence assay relative to control; parameters: species or system Cortical neurone; settings: rat cortical neurons, read-out: Activity
Give viability at 48 h, 33.3 µM for every item shown.
I'd appreciate it if you wrote the number followed by its unit.

Guide cases for viability at 48 h, 33.3 µM, answers given:
query-smiles: COC(=O)C1=CN(C(C)C)C(=O)[C@@H]2C(CN3CCN(Cc4ccccc4)CC3)=CC[C@H]12.Cl.Cl
viability at 48 h, 33.3 µM: 91.7%
//
query-smiles: COC(=O)C1=CN(C(C)C)C(=O)[C@@H]2C(CN3CCN(Cc4ccc([N+](=O)[O-])cc4)CC3)=CC[C@H]12.Cl.Cl
viability at 48 h, 33.3 µM: 88.7%
//
query-smiles: COC(=O)C1=CN(C(C)C)C(=O)[C@@H]2C(CN3CCN(Cc4ccc(F)cc4)CC3)=CC[C@H]12.Cl.Cl
viability at 48 h, 33.3 µM: 88.4%

# context switch: different molecule, same viability at 48 h, 33.3 µM
Enquiry: Please give measured viability at 48 h, 33.3 µM of the following entry: COC(=O)C1=CN(C)C(=O)[C@@H]2C(CN3CCN(Cc4ccc(F)cc4)CC3)=CC[C@H]12.Cl.Cl
Return: 85.1%

---

tested on: Cortical neurone; test: Neuroprotective activity against OGD-induced neurotoxicity in Sprague-Dawley rat cortical neuron assessed as cell survival rate at 1 uM pretreated for 24 hrs followed by incubation in oxygen and glucose deprivation medium for 2 hrs followed by exposure to reoxygenation by re-incubating in normoxia condition for 24 hrs by MTT assay (reference value: 58.5 to 61.2 %); assay type: functional
Assignment: determine reported Activity for the given compounds.
Answers are plain numbers, in %.

query-smiles: COC(=O)C1=CN(C)C(=O)[C@@H]2C(CN3CCN(Cc4ccc([N+](=O)[O-])cc4)CC3)=CC[C@H]12.Cl.Cl
unit-tag: %
Activity: 66.7

Take each entry in turn and give its Activity.
1. COC(=O)C1=CN(C(C)C)C(=O)[C@@H]2C(CN3CCN(Cc4ccc(Cl)cc4)CC3)=CC[C@H]12.Cl.Cl
2. COC(=O)C1=CN(C(C)C)C(=O)[C@@H]2C(CN3CCN(Cc4cccc(C)c4)CC3)=CC[C@H]12.Cl.Cl
3. COC(=O)C1=CN(C(C)C)C(=O)[C@@H]2C(CN3CCN(Cc4cccc(C(F)(F)F)c4)CC3)=CC[C@H]12.Cl.Cl
4. COC(=O)C1=CN(C)C(=O)[C@@H]2C(CN3CCN(Cc4cccc(C(F)(F)F)c4)CC3)=CC[C@H]12.Cl.Cl

Return:
64.3
71.3
71.6
72.5

Okay, here is my list. What is Activity for each of these?
1. COC(=O)C1=CN(C(C)C)C(=O)[C@@H]2C(CN3CCN(Cc4ccc(F)cc4)CC3)=CC[C@H]12.Cl.Cl
2. COC(=O)C1=CN(C(C)C)C(=O)[C@@H]2C(CN3CCN(Cc4ccc([N+](=O)[O-])cc4)CC3)=CC[C@H]12.Cl.Cl

Return:
74.4
74.3

Enquiry: Look up and report measured Activity for this entry: COC(=O)C1=CN(C)C(=O)[C@@H]2C(CN3CCN(Cc4ccc(Cl)cc4)CC3)=CC[C@H]12.Cl.Cl
Return: 71

These data points were gathered from ChEMBL document CHEMBL4373660.
